Provide the recorded IC50 for the entries that follow.
System: Brain
Test Name: Antioxidant activity in rat brain homogenate assessed as malondialdehyde release
Assay type: functional, tissue-based
One number for each entry, in µM.

The cases that follow already have their IC50 on record.
>  <Compound>
CC(C)(C)c1cc(C(=O)O)cc(C(C)(C)C)c1O

>  <Value>
257

$$$$
>  <Compound>
Cc1c(C)c2c(c(C)c1O)CC[C@](C)(C(=O)O)O2 [(R)-TROLOX]

>  <Value>
25

$$$$
>  <Compound>
Cc1c(C)c2c(c(C)c1O)CC[C@](C)(C(=O)NCCCC(=O)OC1N=C(c3ccccc3Cl)c3cc(Cl)ccc3NC1=O)O2 (some centres undefined)

>  <Value>
1.1

$$$$

Switching to the query record.
Recorded IC50 (compound CC(C)(C)c1cc(C(=O)NCCCC(=O)OC2N=C(c3ccccc3Cl)c3cc(Cl)ccc3NC2=O)cc(C(C)(C)C)c1O (centres undefined) ): 24
